assayTarget: human glucagon receptor (human, UniProt P47871 26-477)
Sequence (P47871 26-477): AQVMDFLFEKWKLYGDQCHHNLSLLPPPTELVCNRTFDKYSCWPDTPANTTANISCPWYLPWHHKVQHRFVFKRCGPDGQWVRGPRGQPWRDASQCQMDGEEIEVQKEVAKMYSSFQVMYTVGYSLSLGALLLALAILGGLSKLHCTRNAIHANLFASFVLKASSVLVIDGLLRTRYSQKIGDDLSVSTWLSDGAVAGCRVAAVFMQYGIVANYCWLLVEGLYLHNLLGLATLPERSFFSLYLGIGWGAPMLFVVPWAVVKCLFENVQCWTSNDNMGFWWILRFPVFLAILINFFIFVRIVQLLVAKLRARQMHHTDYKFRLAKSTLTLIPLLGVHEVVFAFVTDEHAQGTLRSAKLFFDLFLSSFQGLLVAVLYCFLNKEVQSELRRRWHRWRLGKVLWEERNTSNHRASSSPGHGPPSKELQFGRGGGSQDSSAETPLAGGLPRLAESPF
assayInfo: cell-based or functional assay
Where no end group is shown, it is not given here. [ ]: non-standard residue; d: D form. Aib = CC(C)(N)C(=O)O
Range-based classes on measured hGcgR CRE Luc EC50 (pM): low value: < 10 pM; medium value: ≥ 10 pM and < 30 pM; high value: ≥ 30 pM

{"binder": "H[Aib]HGTFTSDYSIYLEKRAA[Aib]EFVQWLLEGGPSSGAPPPS-NH2 (not fully specified (residue 16); printed as H-Aib-HGTFTSDYSIYLE-K[(2S)-2-amino-6-[[(2S)-2-amino-6-[[(4S)-4-carboxy-4-(19-carboxynonadecanoylamino)butanoyl]amino]hexanoyl]amino]hexanoyl]-RAA-Aib-EFVQWLLEGGPSSGAPPPS-NH2) [Compound No. 37]", "labelClass": "medium value"}
{"binder": "H[Aib]HGTFTSDYSIYLEKKAA[Aib]EFVQWLLEGGPSSGAPPPS-NH2 (not fully specified (residue 16); printed as H-Aib-HGTFTSDYSIYLE-K[2-[2-[2-[[2-[2-[2-[[(4S)-4-carboxy-4-(19-carboxynonadecanoylamino)butanoyl]amino]ethoxy]ethoxy]acetyl]amino]ethoxy]ethoxy]acetyl]-KAA-Aib-EFVQWLLEGGPSSGAPPPS-NH2) [Compound No. 34]", "labelClass": "medium value"}
{"binder": "H[Aib]HGTFTSDYSYYLEKQYA[Aib]EFVQWLLEGGPSSGAPPPS-NH2 (not fully specified (residue 16); printed as H-Aib-HGTFTSDYSYYLE-K[(2S)-2-amino-6-[[(2S)-2-amino-6-[[(4S)-4-carboxy-4-(19-carboxynonadecanoylamino)butanoyl]amino]hexanoyl]amino]hexanoyl]-QYA-Aib-EFVQWLLEGGPSSGAPPPS-NH2) [Compound No. 29]", "labelClass": "low value"}
{"binder": "H[Aib]HGTFTSDYSYYLEKQAA[Aib]EFVQWLLEGGPSSGAPPPS-NH2 (not fully specified (residue 16); printed as H-Aib-HGTFTSDYSYYLE-K[(2S)-2-amino-6-[[(2S)-2-amino-6-[[(4S)-4-carboxy-4-[[4-[(19-carboxynonadecanoylamino)methyl]cyclohexanecarbonyl]amino]butanoyl]amino]hexanoyl]amino]hexanoyl]-QAA-Aib-EFVQWLLEGGPSSGAPPPS-NH2) [Compound No. 25]", "labelClass": "medium value"}
{"binder": "H[Aib]HGTFTSDYSIYLEKQAA[Aib]EFVQWLLEGGPSSGAPPPS-NH2 (not fully specified (residue 16)) [Compound No. 21]", "labelClass": "medium value"}
{"binder": "Y[Aib]QGTFTSDYSIYLEKQAA[Aib]EFVNWLLAGGPSSGAPPPS-NH2 (not fully specified (residue 16); printed as Y-Aib-QGTFTSDYSIYLE-K[2-[2-[2-[[2-[2-[2-[[(4S)-4-carboxy-4-[[4-[(19-carboxynonadecanoylamino)methyl]cyclohexanecarbonyl]amino]butanoyl]amino]ethoxy]ethoxy]acetyl]amino]ethoxy]ethoxy]acetyl]-QAA-Aib-EFVNWLLAGGPSSGAPPPS-NH2) [Compound No. 12]", "labelClass": "high value"}
{"binder": "H[Aib]HGTFTSDYSIYLEKKYA[Aib]EFVQWLLEGGPSSGAPPPS-NH2 (not fully specified (residue 16); printed as H-Aib-HGTFTSDYSIYLE-K[(2S)-2-amino-6-[[(2S)-2-amino-6-[[(4S)-4-carboxy-4-(17-carboxyheptadecanoylamino)butanoyl]amino]hexanoyl]amino]hexanoyl]-KYA-Aib-EFVQWLLEGGPSSGAPPPS-NH2) [Compound No. 38]", "labelClass": "low value"}
{"binder": "Y[Aib]QGTFTSDYSIYLDKQAA[Aib]EFVNWLLAGGPSSGAPPPS-NH2 (not fully specified (residue 16); printed as Y-Aib-QGTFTSDYSIYLD-K[2-[2-[2-[[2-[2-[2-[[(4S)-4-carboxy-4-[[4-[(19-carboxynonadecanoylamino) methyl]cyclohexanecarbonyl]amino]butanoyl]amino]ethoxy ]ethoxy]acetyl]amino]ethoxy]ethoxy]acetyl]-QAA-Aib-EFVNWLLAGGPSSGAPPPS-NH2) [Compound No. 6]", "labelClass": "high value"}
{"binder": "H[Aib]HGTFTSDYSILLEKQAAEEFVQWLLEGGPSSGAPPPS-OH (not fully specified (residue 16); printed as H-Aib-HGTFTSDYSILLE-K[(2S)-2-amino-6-[[(2S)-2-amino-6-[[(4S)-4-carboxy-4-(19-carboxynonadecanoylamino)butanoyl]amino]hexanoyl]amino]hexanoyl]-QAAEEFVQWLLEGGPSSGAPPPS-OH) [Compound No. 50]", "labelClass": "medium value"}
